# Tested on: BT474 (breast cancer cell line)
# testName: In vitro cytotoxicity by MTT assay, BT474
# Format: cell-based
# conditionSummary: Homo sapiens, BT-474, 0.045 μM, 72 h, read-out: % cytotoxicity (100 − % cell survival) of BT474 cell line
Entries and their measured cytotoxicity at 0.045 µM follow.

[
  {
    "compound": "CC(=O)Nc1ccc(S(=O)(=O)Nc2nnc(S(=O)(=O)NC(=O)c3ccccc3N)s2)cc1",
    "unitDescriptor": "%",
    "cytotoxicity at 0.045 µM": 25.8
  },
  {
    "compound": "NS(=O)(=O)c1ccc(S(=O)(=O)Nc2cccc3c(Cl)c[nH]c23)cc1 [ISL, indisulam, reference compound]",
    "unitDescriptor": "%",
    "cytotoxicity at 0.045 µM": 46.4
  },
  {
    "compound": "O=C(NS(=O)(=O)c1nnc(N=Cc2ccco2)s1)c1ccccc1",
    "unitDescriptor": "%",
    "cytotoxicity at 0.045 µM": 37.4
  },
  {
    "compound": "O=C(NS(=O)(=O)c1nnc(N=Cc2ccccc2O)s1)c1ccccc1",
    "unitDescriptor": "%",
    "cytotoxicity at 0.045 µM": 33.9
  },
  {
    "compound": "COc1ccccc1C=Nc1nnc(S(=O)(=O)NC(=O)c2ccccc2)s1",
    "unitDescriptor": "%",
    "cytotoxicity at 0.045 µM": 42.6
  },
  {
    "compound": "COc1cc(C=Nc2nnc(S(=O)(=O)NC(=O)c3ccccc3)s2)ccc1O",
    "unitDescriptor": "%",
    "cytotoxicity at 0.045 µM": 28.7
  },
  {
    "compound": "Nc1nnc(S(=O)(=O)NC(=O)c2ccccc2)s1",
    "unitDescriptor": "%",
    "cytotoxicity at 0.045 µM": 23.1
  },
  {
    "compound": "Nc1nnc(S(=O)(=O)NC(=O)c2cccc([N+](=O)[O-])c2)s1",
    "unitDescriptor": "%",
    "cytotoxicity at 0.045 µM": 41.3
  },
  {
    "compound": "O=C(NS(=O)(=O)c1nnc(N=Cc2ccccc2)s1)c1ccccc1",
    "unitDescriptor": "%",
    "cytotoxicity at 0.045 µM": 36.4
  },
  {
    "compound": "COc1ccc(C=Nc2nnc(S(=O)(=O)NC(=O)c3ccccc3)s2)cc1",
    "unitDescriptor": "%",
    "cytotoxicity at 0.045 µM": 33.5
  },
  {
    "compound": "Nc1ccc(C(=O)NS(=O)(=O)c2nnc(N)s2)cc1",
    "unitDescriptor": "%",
    "cytotoxicity at 0.045 µM": 34.2
  },
  {
    "compound": "Nc1ccc(S(=O)(=O)Nc2nnc(S(=O)(=O)NC(=O)c3ccccc3N)s2)cc1",
    "unitDescriptor": "%",
    "cytotoxicity at 0.045 µM": 29.5
  },
  {
    "compound": "CC(=O)Nc1ccc(S(=O)(=O)Nc2nnc(S(=O)(=O)NC(=O)c3cccc([N+](=O)[O-])c3)s2)cc1",
    "unitDescriptor": "%",
    "cytotoxicity at 0.045 µM": 32.1
  },
  {
    "compound": "Nc1ccc(S(=O)(=O)Nc2nnc(S(=O)(=O)NC(=O)c3ccccc3O)s2)cc1",
    "unitDescriptor": "%",
    "cytotoxicity at 0.045 µM": 30.6
  },
  {
    "compound": "CN(C)c1ccc(C=Nc2nnc(S(=O)(=O)NC(=O)c3ccccc3)s2)cc1",
    "unitDescriptor": "%",
    "cytotoxicity at 0.045 µM": 30.6
  },
  {
    "compound": "Nc1ccc(S(=O)(=O)Nc2nnc(S(=O)(=O)NC(=O)c3ccc(Cl)cc3)s2)cc1",
    "unitDescriptor": "%",
    "cytotoxicity at 0.045 µM": 30
  },
  {
    "compound": "Nc1nnc(S(=O)(=O)NC(=O)c2ccc(Cl)cc2)s1",
    "unitDescriptor": "%",
    "cytotoxicity at 0.045 µM": 32.1
  }
]

* * *

# testName: In vitro cytotoxicity by MTT assay, HEK 293
# Type: cell-based, human
# conditionSummary: human, HEK 293 cells, 0.005 μM, read-out: % cytotoxicity (100 − % cell survival) of HEK 293 cell line
# Protocol: The cancer cell line cultures of HEK 293 ([…]), BT474 (breast cancer cell line) and NCI-H226 (lung cancer) were obtained from Pasteur Institute of India, Coonoor, India, and were cultured in RPMI-1640 and 10 % heat-[…] New born calf serum with antibiotics [penicillin ([…]), streptomycin (100 μg/mL) and amphotericin B (25 μg/mL)]. The cells were maintained at 37 °C in a humidified atmosphere with 5 % CO2 and were subcultured twice a week. […]
# cytotoxicity at 72 h, 0.005 µM values compiled below
measurementLabel: cytotoxicity at 72 h, 0.005 µM (%)

[
  {
    "compound": "Nc1ccc(S(=O)(=O)Nc2nnc(S(=O)(=O)NC(=O)c3ccccc3O)s2)cc1 [Compound 7d]",
    "readoutNumber": 18.9
  },
  {
    "compound": "Nc1ccc(S(=O)(=O)Nc2nnc(S(=O)(=O)NC(=O)c3ccccc3)s2)cc1 [Compound 7a]",
    "readoutNumber": 23.7
  },
  {
    "compound": "Nc1nnc(S(=O)(=O)NC(=O)c2ccccc2)s1 [Compound 4a]",
    "readoutNumber": 25.6
  },
  {
    "compound": "O=C(NS(=O)(=O)c1nnc(N=Cc2ccccc2)s1)c1ccccc1 [Compound 9a]",
    "readoutNumber": 37.4
  },
  {
    "compound": "Nc1nnc(S(=O)(=O)NC(=O)c2cccc([N+](=O)[O-])c2)s1 [Compound 4f]",
    "readoutNumber": 24.3
  }
]

* * *

# testName: In vitro cytotoxicity by MTT assay, NCI-H226
# Assay type: cell-based
# conditionSummary: human, NCI-H226 lung cancer cells, 0.015 μM, read-out: % Cytotoxicity (100 − % cell survival) of NCI-H226 cell line

[
  {
    "compound": "Nc1nnc(S(=O)(=O)NC(=O)c2ccccc2N)s1",
    "unitDescriptor": "%",
    "cytotoxicity at 72 h, 0.015 µM": 32.9
  },
  {
    "compound": "Nc1ccc(S(=O)(=O)Nc2nnc(S(=O)(=O)NC(=O)c3ccccc3)s2)cc1",
    "unitDescriptor": "%",
    "cytotoxicity at 72 h, 0.015 µM": 28.4
  },
  {
    "compound": "O=C(NS(=O)(=O)c1nnc(N=Cc2ccc(Cl)cc2)s1)c1ccccc1",
    "unitDescriptor": "%",
    "cytotoxicity at 72 h, 0.015 µM": 29.5
  },
  {
    "compound": "Nc1ccc(S(=O)(=O)Nc2nnc(S(=O)(=O)NC(=O)c3ccccc3O)s2)cc1",
    "unitDescriptor": "%",
    "cytotoxicity at 72 h, 0.015 µM": 34.1
  },
  {
    "compound": "O=C(NS(=O)(=O)c1nnc(N=Cc2ccco2)s1)c1ccccc1",
    "unitDescriptor": "%",
    "cytotoxicity at 72 h, 0.015 µM": 33.2
  },
  {
    "compound": "CC(=O)Nc1ccc(S(=O)(=O)Nc2nnc(S(=O)(=O)NC(=O)c3ccc([N+](=O)[O-])cc3)s2)cc1",
    "unitDescriptor": "%",
    "cytotoxicity at 72 h, 0.015 µM": 41.2
  },
  {
    "compound": "CC(=O)Nc1ccc(S(=O)(=O)Nc2nnc(S(=O)(=O)NC(=O)c3ccc(N)cc3)s2)cc1",
    "unitDescriptor": "%",
    "cytotoxicity at 72 h, 0.015 µM": 32.8
  },
  {
    "compound": "O=C(NS(=O)(=O)c1nnc(N=Cc2ccc(O)cc2)s1)c1ccccc1",
    "unitDescriptor": "%",
    "cytotoxicity at 72 h, 0.015 µM": 40.3
  },
  {
    "compound": "Nc1ccc(S(=O)(=O)Nc2nnc(S(=O)(=O)NC(=O)c3ccc(Cl)cc3)s2)cc1",
    "unitDescriptor": "%",
    "cytotoxicity at 72 h, 0.015 µM": 32.8
  },
  {
    "compound": "Nc1nnc(S(=O)(=O)NC(=O)c2ccc(Cl)cc2)s1",
    "unitDescriptor": "%",
    "cytotoxicity at 72 h, 0.015 µM": 36.1
  },
  {
    "compound": "NS(=O)(=O)c1ccc(S(=O)(=O)Nc2cccc3c(Cl)c[nH]c23)cc1 [ISL, indisulam, reference compound]",
    "unitDescriptor": "%",
    "cytotoxicity at 72 h, 0.015 µM": 28.4
  },
  {
    "compound": "O=C(NS(=O)(=O)c1nnc(N=Cc2ccccc2O)s1)c1ccccc1",
    "unitDescriptor": "%",
    "cytotoxicity at 72 h, 0.015 µM": 31.2
  },
  {
    "compound": "Nc1ccc(S(=O)(=O)Nc2nnc(S(=O)(=O)NC(=O)c3cccc([N+](=O)[O-])c3)s2)cc1",
    "unitDescriptor": "%",
    "cytotoxicity at 72 h, 0.015 µM": 39.3
  },
  {
    "compound": "CN(C)c1ccc(C=Nc2nnc(S(=O)(=O)NC(=O)c3ccccc3)s2)cc1",
    "unitDescriptor": "%",
    "cytotoxicity at 72 h, 0.015 µM": 35
  },
  {
    "compound": "Nc1ccc(C(=O)NS(=O)(=O)c2nnc(N)s2)cc1",
    "unitDescriptor": "%",
    "cytotoxicity at 72 h, 0.015 µM": 38.2
  },
  {
    "compound": "Nc1nnc(S(=O)(=O)NC(=O)c2cccc([N+](=O)[O-])c2)s1",
    "unitDescriptor": "%",
    "cytotoxicity at 72 h, 0.015 µM": 38.6
  },
  {
    "compound": "CC(=O)Nc1ccc(S(=O)(=O)Nc2nnc(S(=O)(=O)NC(=O)c3cccc([N+](=O)[O-])c3)s2)cc1",
    "unitDescriptor": "%",
    "cytotoxicity at 72 h, 0.015 µM": 44.9
  }
]

From: paper PMC3973950
